- Target: human RXFP1, full-length (human), Q9HBX9
- Sequence (Q9HBX9 whole entry): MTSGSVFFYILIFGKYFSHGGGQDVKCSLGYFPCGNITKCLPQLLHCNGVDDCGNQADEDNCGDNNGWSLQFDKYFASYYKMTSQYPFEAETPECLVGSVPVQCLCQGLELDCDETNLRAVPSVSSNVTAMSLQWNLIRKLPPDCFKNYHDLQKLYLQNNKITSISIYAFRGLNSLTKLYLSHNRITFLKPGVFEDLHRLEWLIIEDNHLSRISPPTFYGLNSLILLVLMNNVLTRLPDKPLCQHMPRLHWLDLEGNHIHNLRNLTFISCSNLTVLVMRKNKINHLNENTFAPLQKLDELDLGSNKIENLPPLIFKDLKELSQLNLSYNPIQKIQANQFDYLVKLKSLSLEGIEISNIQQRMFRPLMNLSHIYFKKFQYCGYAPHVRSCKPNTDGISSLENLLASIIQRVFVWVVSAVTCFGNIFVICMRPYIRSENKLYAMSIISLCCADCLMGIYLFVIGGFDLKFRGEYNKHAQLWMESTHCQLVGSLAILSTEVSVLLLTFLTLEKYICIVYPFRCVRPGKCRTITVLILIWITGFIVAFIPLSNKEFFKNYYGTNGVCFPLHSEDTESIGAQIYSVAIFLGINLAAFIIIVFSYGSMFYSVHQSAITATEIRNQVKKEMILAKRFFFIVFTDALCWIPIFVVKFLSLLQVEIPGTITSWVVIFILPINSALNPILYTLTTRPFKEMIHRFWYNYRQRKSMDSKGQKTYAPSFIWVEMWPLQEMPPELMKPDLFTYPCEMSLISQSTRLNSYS
- Protocol: cell-based or functional assay
Kindly state Potency Assay EC50 (nM), transient hRXFP1 cAMP assay for each of the entries shown.
Dear colleague, please return just the value in nM, with no unit written.

Query :: Find the measured Potency Assay EC50 (nM), transient hRXFP1 cAMP assay of SEQ ID NO: 81 (Fc fusion) DKTHTCPPCPAPEAAGGPSVFLFPPKPKDTLMISRTPEVTCVVVDVSHEDPEVKFNWYVDGVEVHNAKTKPREEQYNSTYRVVSVLTVLHQDWLNGKEYKCKVSNKALAAPIEKTISKAKGQPREPQVYTLPPSRDELTKNQVSLTCLVKGFYPSDIAVEWESNGQPENNYKTTPPVLDSDGSFFLYSKLTVDKSRWQQGNVFSCSVLHEALHSHYTQKSLSLSPGGGSDSWQEEVIKLCGRELVRAQIAICGKSTGGGEGGGEGGGEGRQDYSALANKCCHVGCTKRSLAQFC and report it.
Result :: 426

Query :: Look up and report measured Potency Assay EC50 (nM), transient hRXFP1 cAMP assay for this entry: SEQ ID NO: 79 (Fc fusion) DKTHTCPPCPAPEAAGGPSVFLFPPKPKDTLMISRTPEVTCVVVDVSHEDPEVKFNWYVDGVEVHNAKTKPREEQYNSTYRVVSVLTVLHQDWLNGKEYKCKVSNKALAAPIEKTISKAKGQPREPQVYTLPPSRDELTKNQVSLTCLVKGFYPSDIAVEWESNGQPENNYKTTPPVLDSDGSFFLYSKLTVDKSRWQQGNVFSCSVLHEALHSHYTQKSLSLSPGKGGSDSWQEEVIKLCGRELVRAQIAICGKSTGGGEGGGEGGGEGRQDYSALANKCCHVGCTKRSLAQFC
Result :: 117

Query :: Return Potency Assay EC50 (nM), transient hRXFP1 cAMP assay (reported value) for this binder: SEQ ID NO: 213 (Fc fusion) DKTHTCPPCPAPEAAGGPSVFLFPPKPKDTLMISRTPEVTCVVVDVSHEDPEVKFNWYVDGVEVHNAKTKPREEQYNSTYRVVSVLTVLHQDWLNGKEYKCKVSNKALAAPIEKTISKAKGQPREPQVYTLPPSRDELTKNQVSLTCLVKGFYPSDIAVEWESNGQPENNYKTTPPVLDSDGSFFLYSKLTVDKSRWQQGNVFSCSVLHEALHSHYTQKSLSLSPGKGGSDSWKEEVIKLCGRELVRAQIAICGKSTASDAAGANANAGARQLYSALANKCCHVGCTKRSLAEFC
Result :: 1.8

Query :: Return reported Potency Assay EC50 (nM), transient hRXFP1 cAMP assay. Input binder: SEQ ID NO: 83 (Fc fusion) DKTHTCPPCPAPEAAGGPSVFLFPPKPKDTLMISRTPEVTCVVVDVSHEDPEVKFNWYVDGVEVHNAKTKPREEQYNSTYRVVSVLTVLHQDWLNGKEYKCKVSNKALAAPIEKTISKAKGQPREPQVYTLPPSRDELTKNQVSLTCLVKGFYPSDIAVEWESNGQPENNYKTTPPVLDSDGSFFLYSKLTVDKSRWQQGNVFSCSVLHEALHSHYTQKSLSLSPGGGSDSWQEEVIKLCGRELVRAQIAICGKSTGGEGEGGEGEGGSRQLYSALANKCCHVGCTKRSLARFC
Result :: 9.3

Query :: Hello, please tell me recorded Potency Assay EC50 (nM), transient hRXFP1 cAMP assay for this one: SEQ ID NO: 57 (Fc fusion) DKTHTCPPCPAPEAAGGPSVFLFPPKPKDTLMISRTPEVTCVVVDVSHEDPEVKFNWYVDGVEVHNAKTKPREEQYNSTYRVVSVLTVLHQDWLNGKEYKCKVSNKALAAPIEKTISKAKGQPREPQVYTLPPSRDELTKNQVSLTCLVKGFYPSDIAVEWESNGQPENNYKTTPPVLDSDGSFFLYSKLTVDKSRWQQGNVFSCSVLHEALHSHYTQKSLSLSPGKGGSDSWQEEVIKLCGRELVRAQIAICGKSTGGGEGGGEGGGEGRQLYSALANKCCHVGCTKRSLARFC
Result :: 2.5
